assayTarget: UniProt:P29275
Sequence (P29275 whole entry): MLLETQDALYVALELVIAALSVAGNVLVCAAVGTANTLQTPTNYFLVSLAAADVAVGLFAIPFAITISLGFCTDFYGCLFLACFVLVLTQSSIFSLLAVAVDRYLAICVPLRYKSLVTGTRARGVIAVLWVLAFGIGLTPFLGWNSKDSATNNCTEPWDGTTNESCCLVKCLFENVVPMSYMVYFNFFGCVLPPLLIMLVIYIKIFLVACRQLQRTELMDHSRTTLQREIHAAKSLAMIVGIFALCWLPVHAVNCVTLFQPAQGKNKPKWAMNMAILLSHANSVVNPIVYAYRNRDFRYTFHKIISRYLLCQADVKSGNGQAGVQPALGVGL
protocolText: Displacement of [3H]-MRS-1754 from human adenosine receptor A2b expressed in HEK293 cell membranes after 90 mins by liquid scintillation counting method
quantity: Ki (nM)

1. CCCn1c(=O)c2[nH]c(-c3cnn(CC4CC(=O)N(c5ccc(OC(F)(F)F)cc5)C4)c3)nc2n(CCC)c1=O (configuration not stated); 4
2. CCCn1c(=O)c2[nH]c(-c3cnn(CC4CC(=O)N(c5cccc(F)c5)C4)c3)nc2n(CC)c1=O (configuration not stated); 24
3. CCCn1c(=O)c2[nH]c(-c3cnn(CC4CC(=O)N(c5cccc(OC(F)(F)F)c5)C4)c3)nc2n(CCC)c1=O (configuration not stated); 9
4. CCCn1c(=O)c2[nH]c(-c3cnn(CC4CC(=O)N(c5ccc(F)cc5F)C4)c3)nc2n(CCC)c1=O (configuration not stated); 19
5. CCCn1c(=O)c2[nH]c(-c3cnn(CC4CCN(c5ccc(OC)cc5)C4)c3)nc2n(CCC)c1=O (configuration not stated); 13
6. CCCn1c(=O)c2[nH]c(-c3cnn(CC4CC(=O)N(c5cccc(OC(F)(F)F)c5)C4)c3)nc2n(CC)c1=O (configuration not stated); 17.5
7. CCCn1c(=O)c2[nH]c(-c3cnn(CC4CC(=O)N(c5ccc(C)cc5)C4)c3)nc2n(CCC)c1=O (configuration not stated); 8
8. CCCn1c(=O)c2[nH]c(-c3cc(OCC4CC(=O)N(c5cccc(C(F)(F)F)c5)C4)no3)nc2n(CCC)c1=O (configuration not stated); 69
9. CCCn1c(=O)c2[nH]c(-c3cnn(CC4CC(=O)N(c5cccc(C)c5)C4)c3)nc2n(CCC)c1=O (configuration not stated); 10.7
10. CCCn1c(=O)c2[nH]c(-c3cc(OCC4CC(=O)N(c5ccc(F)cc5)C4)no3)nc2n(CCC)c1=O (configuration not stated); 210
11. CCCn1c(=O)c2[nH]c(-c3cnn(CC4CC(=O)N(c5ccc(OC)cc5)C4)c3)nc2n(CC)c1=O (configuration not stated); 16
12. CCCn1c(=O)c2[nH]c(-c3cnn(CC(O)C4CC(=O)N(c5cccc(C(F)(F)F)c5)C4)c3)nc2n(CCC)c1=O (configuration not stated); 1.2
13. CCCn1c(=O)c2[nH]c(-c3ccc(OCC4CC(=O)N(c5cccc(C(F)(F)F)c5)C4)nc3)nc2n(CCC)c1=O (configuration not stated); 8.7
14. CCCn1c(=O)c2[nH]c(-c3cnn(CC4CC(=O)N(c5ccc(C(F)(F)F)cc5)C4)c3)nc2n(CC)c1=O (configuration not stated); 4
15. CCCn1c(=O)c2[nH]c(-c3cnn(CC(=O)N4CCN(c5cccc(C(F)(F)F)c5)CC4)c3)nc2n(CCC)c1=O; 1.5
16. CCCn1c(=O)c2[nH]c(-c3cnn(CC4CC(=O)N(c5ccc(C(=O)O)cc5)C4)c3)nc2n(CCC)c1=O (configuration not stated); 77
17. CCCn1c(=O)c2[nH]c(-c3cnn(CC4CC(=O)N(c5cccc(OC)c5)C4)c3)nc2n(CCC)c1=O (configuration not stated); 21.6
18. CCCn1c(=O)c2[nH]c(-c3ccc(OCC4CC(=O)N(c5ccc(F)cc5)C4)cc3)nc2n(CCC)c1=O (configuration not stated); 5.4
19. CCCn1c(=O)c2[nH]c(-c3ccc(OCC4CC(=O)N(c5cccc(C(F)(F)F)c5)C4)cc3)nc2n(CCC)c1=O (configuration not stated); 7.5
20. CCCn1c(=O)c2[nH]c(-c3cnn(CC4CC(=O)N(c5ccc(C#N)cc5)C4)c3)nc2n(CCC)c1=O (configuration not stated); 23
21. CCCn1c(=O)c2[nH]c(-c3cnn(CC(=O)N4CCN(c5ccc(C(F)(F)F)cc5)CC4)c3)nc2n(CCC)c1=O; 0.9
22. CCCn1c(=O)c2[nH]c(-c3ccc(OCC4CC(=O)N(c5ccc(C(F)(F)F)cc5)C4)nc3)nc2n(CCC)c1=O (configuration not stated); 3
23. CCCn1c(=O)c2[nH]c(-c3cc(OCC4CC(=O)N(c5ccc(C(F)(F)F)cc5)C4)no3)nc2n(CCC)c1=O (configuration not stated); 12.8
24. CCCn1c(=O)c2[nH]c(-c3cnn(CC4CC(=O)N(c5cccc(C(F)(F)F)c5)C4)c3)nc2n(CC)c1=O (configuration not stated); 4.5
25. CCCn1c(=O)c2[nH]c(-c3ccc(OCC4CC(=O)N(c5cccc(F)c5)C4)nc3)nc2n(CCC)c1=O (configuration not stated); 4.6
26. CCCn1c(=O)c2[nH]c(-c3cnn(CC4CC(=O)N(c5ccc(C(F)(F)F)cc5)C4)c3)nc2n(CCC)c1=O (configuration not stated); 1
27. CCCn1c(=O)c2[nH]c(-c3cnn(CCC4CC(=O)N(c5cccc(C(F)(F)F)c5)C4)c3)nc2n(CCC)c1=O (configuration not stated); 2.6
28. CCCn1c(=O)c2[nH]c(-c3cnn(CC4CCN(c5cccc(F)c5)C4=O)c3)nc2n(CCC)c1=O (configuration not stated); 43
29. CCCn1c(=O)c2[nH]c(-c3cnn(C(C)C4CC(=O)N(c5cccc(C(F)(F)F)c5)C4)c3)nc2n(CCC)c1=O (configuration not stated); 4
30. CCCn1c(=O)c2[nH]c(-c3cnn(CC4CC(=O)N(c5ccc(F)cc5)C4)c3)nc2n(CC)c1=O (configuration not stated); 12
31. CCCn1c(=O)c2[nH]c(-c3ccc(OCC4CC(=O)N(c5ccc(F)cc5)C4)nc3)nc2n(CCC)c1=O (configuration not stated); 4
